Species: Rattus norvegicus
Measurement description: DrugMatrix - Regimen: Daily Repeat
Format: toxicity, organism-based, Sprague-Dawley
Design: regimen Daily Repeat, gender Male, age 6-8 weeks
Condition: in vivo, po, 0 mg/kg, 72 h, tissue Plasma, route oral GAVAGE, dose level Control, time 3 day, […]
Tag: fulfilled if measured URIC ACID is not below 0.8 mg/dL, not fulfilled if it is.

## Task Reported URIC ACID reaches at least 0.8 mg/dL for `Cn1cnc([N+](=O)[O-])c1Sc1ncnc2nc[nH]c12` ?
## Result not fulfilled

## Task # repeat for CC(C)n1c(/C=C/C(O)CC(O)CC(=O)O)c(-c2ccc(F)cc2)c2ccccc21 (stereo unspecified)
## Result not fulfilled

## Task Next molecule up: CC(C)(Oc1ccc(CCNC(=O)c2ccc(Cl)cc2)cc1)C(=O)O [BEZAFIBRATE]
## Result fulfilled

## Task Now this one: `COc1ccc2c(c1)c(CC(=O)OCC(=O)O)c(C)n2C(=O)c1ccc(Cl)cc1`
## Result fulfilled

## Task Moving on to `CCCCCCCCCc1ccc(O)cc1`
## Result fulfilled

Numbers sourced from ChEMBL document CHEMBL3885881.
